Measured values drawn from the OligoGym collection for this set.

Catalogue of sensor-assay potency score (higher = more potent) values
# SYSTEM TESTED: PRM2
# EXPERIMENTAL DETAILS: pooled miR-30 sensor sort-seq; sequence = guide strand; also: reference of the scale not given here
# ASSAY CONTEXT: shRNA
Give your answer as a number; write no unit.

residue_string=TTCCTGGTTCTGCAGCCTCTGC reported_value=-1.75

Task: # get_value(readout='sensor-assay potency score (higher = more potent)', item= TCGAGAGCAGTGTCTGCGCCTA )
Output: -0.978

Task: # get_value(readout='sensor-assay potency score (higher = more potent)', item= TTTCTCTTAACTTCCAGCTGGG )
Output: 0.205

Task: # get_value(readout='sensor-assay potency score (higher = more potent)', item= TTGCTCTTGCCCATGCAACTGC )
Output: -0.57

Task: # get_value(readout='sensor-assay potency score (higher = more potent)', item= TAGACCTCGACGTGCTCCGGGC )
Output: -1

Task: # get_value(readout='sensor-assay potency score (higher = more potent)', item= TTCTCTTAACTTCCAGCTGGGG )
Output: -0.773

---

Catalogue of sensor-assay potency score (higher = more potent) values
# SYSTEM TESTED: ALG10B
# EXPERIMENTAL DETAILS: pooled miR-30 sensor sort-seq; sequence = guide strand
# ASSAY CONTEXT: shRNA
Give your answer as a number; write no unit.

Solved cases (3 shown):
residue_string=TTTTGTGCAATGACATTCCCTG reported_value=0.314
residue_string=TTCATGACTACTCCGATCGCCA reported_value=-0.64
residue_string=TAAAGTGTTGGAAATACTGCTA reported_value=-0.0567

# input for lookup
Task: Lab request: please report sensor-assay potency score (higher = more potent) under test system ALG10B for TTTCTGAGGAACTATAACAATG
Output: -1.85

---

# SYSTEM TESTED: ANTXR1
# EXPERIMENTAL DETAILS: pooled miR-30 sensor sort-seq; sequence = guide strand
# ASSAY CONTEXT: shRNA
Catalogue of sensor-assay potency score (higher = more potent) values
Give your answer as a number; write no unit.

Solved cases (3 shown):
residue_string=TTATATTCTGCCTTGTTCCAGA reported_value=-0.0343
residue_string=TGTCTCTACACTGTGAGCCTGG reported_value=-0.327
residue_string=TTATTGATTAAACAGATCCAGA reported_value=-1.04

# input for lookup
Task: # get_value(readout='sensor-assay potency score (higher = more potent)', item= TTGAGTTTCTTACCACACCAGG )
Output: -1.02

---

Catalogue of sensor-assay potency score (higher = more potent) values
# SYSTEM TESTED: SLC12A1
# EXPERIMENTAL DETAILS: pooled miR-30 sensor sort-seq; sequence = guide strand
# ASSAY CONTEXT: shRNA
Give your answer as a number; write no unit.

residue_string=TATCTTTGATAGTCGCTTCCAA reported_value=0.0928
residue_string=TTGTGTGAGAATCATAAGCGTG reported_value=-0.782
residue_string=TTTCTTATATCCAATCACCAGA reported_value=-0.816

Task: Lab request: please report sensor-assay potency score (higher = more potent) under test system SLC12A1 for TTGAGTGCTGGCTTCCACCAGT
Output: -0.0176

---

# SYSTEM TESTED: SFTA2
# EXPERIMENTAL DETAILS: pooled miR-30 sensor sort-seq; sequence = guide strand
# ASSAY CONTEXT: shRNA
The threshold is inclusive: sensor-assay potency score (higher = more potent) of exactly 0.1 counts as 1; values below receive 0.

Example cases with answers are listed next.
residue_string=ATTTGTCAGAAAAGACTCCTTC class_name=1
residue_string=TTTGTCAGAAAAGACTCCTTCA class_name=1
residue_string=TGGAGGGTGACGCTGGTCCCTG class_name=0
residue_string=TTCCATGTGAGCTGCCAAGGAG class_name=0

Please examine the following record next.
Task: API: above_or_equal(metric=sensor-assay potency score (higher = more potent), cutoff=0.1) for item TTCAGTTGCAAAGTCATACCCG
Output: 1

---

# SYSTEM TESTED: RASIP1
# EXPERIMENTAL DETAILS: pooled miR-30 sensor sort-seq; sequence = guide strand
# ASSAY CONTEXT: shRNA
The threshold is inclusive: sensor-assay potency score (higher = more potent) of exactly -0.4 counts as class 1; values below receive class 0.

Example cases with answers are listed next.
residue_string=TGGAGCAGCAGGAAGTAGGGGC class_name="class 1"
residue_string=TTGGAGAAGAAGAACAAGTAGC class_name="class 1"
residue_string=TCAACTGATCGAAGTCCCCGGG class_name="class 1"
residue_string=TTGGTCAGCCTCCTTCTCCATT class_name="class 0"
residue_string=TAGGTCTCAATCCTGGAGGCAT class_name="class 0"
residue_string=TTTTCTGAGCGCTCCTTGCCTC class_name="class 0"

Please examine the following record next.
Task: API: above_or_equal(metric=sensor-assay potency score (higher = more potent), cutoff=-0.4) for item TTCCAAGTCATTGCAGAGCTGT
Output: class 1

---

# SYSTEM TESTED: TCEA3
# EXPERIMENTAL DETAILS: pooled miR-30 sensor sort-seq; sequence = guide strand
# ASSAY CONTEXT: shRNA
Catalogue of sensor-assay potency score (higher = more potent) values

Solved cases (2 shown):
residue_string=ATAGGTGCAGTTCTTCTTCTTG reported_value=-0.625
residue_string=TACTTCATGTCCGTGCTCTTGA reported_value=0.446

Task: # get_value(readout='sensor-assay potency score (higher = more potent)', item= TCTTGTCACAGTTGACTCCATA )
Output: -0.75

Task: # get_value(readout='sensor-assay potency score (higher = more potent)', item= TTCTTCTTCTTGCATTTGCTGC )
Output: -0.856

Task: # get_value(readout='sensor-assay potency score (higher = more potent)', item= TTGAGGTTGCTTATGCGGCTGC )
Output: -0.208

Task: # get_value(readout='sensor-assay potency score (higher = more potent)', item= TTCCGGTACTTCATGTCCGTGC )
Output: 0.146

---

# SYSTEM TESTED: ANKRD53
# EXPERIMENTAL DETAILS: pooled miR-30 sensor sort-seq; sequence = guide strand
# ASSAY CONTEXT: shRNA
Catalogue of sensor-assay potency score (higher = more potent) values
Give your answer as a number; write no unit.

Solved cases (5 shown):
residue_string=TTGGACTCCGCGTCAGTCCAGG reported_value=-1.11
residue_string=TTCATTTTCGTCATCTCACGGG reported_value=0.469
residue_string=TCTGATAGCAGCTTCTCTGAGA reported_value=-0.337
residue_string=AAACTTGTACTCCTCTACCAGG reported_value=-1.13
residue_string=TGATAGTAGAGAAATGTCCTGC reported_value=0.127

Task: # get_value(readout='sensor-assay potency score (higher = more potent)', item= TAGTAGAGAAATGTCCTGCCAT )
Output: -0.32

Task: # get_value(readout='sensor-assay potency score (higher = more potent)', item= TTGCTAACATTCCACATTGTGG )
Output: -1.32

Task: # get_value(readout='sensor-assay potency score (higher = more potent)', item= TTGACCTTGATACTCAATCAGG )
Output: -0.673

---

# SYSTEM TESTED: ADAD1
# EXPERIMENTAL DETAILS: pooled miR-30 sensor sort-seq; sequence = guide strand
# ASSAY CONTEXT: shRNA
PARAMETER: sensor-assay potency score (higher = more potent)
Give your answer as a number; write no unit.

residue_string=TTTAGGACAGTAAACAGTCAGA reported_value=-1
residue_string=TATAGCTACAACCTCATGTTGT reported_value=0.156

Task: # get_value(readout='sensor-assay potency score (higher = more potent)', item= TAAACCGACTTAACATTGCAGC )
Output: -0.535

Task: # get_value(readout='sensor-assay potency score (higher = more potent)', item= TAAGAAGAGACCTTCTTGCTGT )
Output: 0.614

Task: # get_value(readout='sensor-assay potency score (higher = more potent)', item= TTATTCTATTAACACCATCTTT )
Output: -0.934

Task: # get_value(readout='sensor-assay potency score (higher = more potent)', item= TTGATTTTTCCATCATAGCAGG )
Output: -0.926

Task: # get_value(readout='sensor-assay potency score (higher = more potent)', item= TCAACTTACATTTAGCTTCTTG )
Output: -0.0304

---

Catalogue of sensor-assay potency score (higher = more potent) values
# SYSTEM TESTED: CHD2
# EXPERIMENTAL DETAILS: pooled miR-30 sensor sort-seq; sequence = guide strand
# ASSAY CONTEXT: shRNA
Give your answer as a number; write no unit.

Solved cases (8 shown):
residue_string=TTATCTGTGTGGAAAGAGCGGT system_tested=CHD2 reported_value=-0.167
residue_string=TCAACAAGTAATCCGCTCGGGT system_tested=CHD2 reported_value=-0.663
residue_string=TTGCACTTGTTGACACTTCATT system_tested=CHD2 reported_value=-0.8
residue_string=TTTTGCACCAGGAATGAGCTAG system_tested=CHD2 reported_value=0.429
residue_string=TGCATTGCTGACACACAGCTGT system_tested=CHD2 reported_value=-0.311
residue_string=TTTATCTGTCTCCACCGGCAGA system_tested=CHD2 reported_value=-1.04
residue_string=TTGTTTTCCAGGATCGTCCGGC system_tested=CHD2 reported_value=-0.196
residue_string=TTCCTTAATATTAAATCGCGAT system_tested=CHD2 reported_value=-0.656

Task: # get_value(readout='sensor-assay potency score (higher = more potent)', item= TAAACTGTGATAGAAGTTCATC )
Output: -0.983

Task: # get_value(readout='sensor-assay potency score (higher = more potent)', item= TTTAAAGCTACAAATCGTGGTC )
Output: 0.518

Task: # get_value(readout='sensor-assay potency score (higher = more potent)', item= ATAAATTTCTTCTAGCTCCTTC )
Output: 1.15

Task: # get_value(readout='sensor-assay potency score (higher = more potent)', item= TAAGCCTTGATGAACCTTCGGA )
Output: 0.0623

Task: # get_value(readout='sensor-assay potency score (higher = more potent)', item= TTCTTCTAGCTCCTTCTGCCGC )
Output: -0.813
